Target: Cytosol aminopeptidase (Homo sapiens) (UniProt P28838)
Sequence (P28838 whole entry, looked up): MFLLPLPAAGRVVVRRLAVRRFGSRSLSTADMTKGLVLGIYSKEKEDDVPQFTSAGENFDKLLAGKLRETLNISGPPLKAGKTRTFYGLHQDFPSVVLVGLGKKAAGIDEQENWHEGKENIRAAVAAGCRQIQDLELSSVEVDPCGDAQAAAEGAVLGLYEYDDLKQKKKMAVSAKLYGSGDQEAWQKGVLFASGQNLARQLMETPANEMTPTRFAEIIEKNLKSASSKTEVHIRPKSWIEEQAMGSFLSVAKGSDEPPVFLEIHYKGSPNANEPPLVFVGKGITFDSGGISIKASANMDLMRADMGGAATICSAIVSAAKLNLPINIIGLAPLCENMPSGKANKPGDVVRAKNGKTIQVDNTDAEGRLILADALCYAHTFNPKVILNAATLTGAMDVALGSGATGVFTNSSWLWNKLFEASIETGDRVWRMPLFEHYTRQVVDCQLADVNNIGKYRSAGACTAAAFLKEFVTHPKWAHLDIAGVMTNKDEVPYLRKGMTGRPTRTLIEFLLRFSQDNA
Assay: HuM17LAP enzyme activity inhibition – biochemical, QFRET fluorogenic substrate, counter-screen for PfM17LAP inhibitor project, dose response (AID 602407)
Details: recombinant human M17LAP, H-Leu-NHMec fluorogenic cleavage
pIC50: −log10 of the molar value.
Quantity: pIC50

Check out these entries, answers already filled in.
{"Compound": "CCCCOc1ccc(C(C)C(=O)NO)cc1 (stereo not given)", "Reported Measurement": 6.28}
{"Compound": "CCC(C)Oc1ccc(CC(=O)NO)cc1 (stereo not given)", "Reported Measurement": 6.42}
{"Compound": "CCCCOc1cccc(CC(=O)NO)c1", "Reported Measurement": 5.56}

[1] O=C(NO)c1ccc2ccccc2c1
[2] CCCOc1ccc(CC(=O)NO)cc1
Which of the two items, 1 and 2 , has the greater recorded pIC50? Respond using the label that marks the chosen record. 2
(2: 6.31, 1: 5.08)
